Below, each entry is listed with its recorded IC50.
test system: oral epidermoid (KB) carcinoma cell line; assay: Cytotoxicity assay (sulforhodamine B), KB; format: cell-based, human; conditions: KB cells, 72 hours; read-out: Cytotoxic activity IC50, KB
*1 amine or outer side, *2 acyl side, *3 side chain or, on linkers, in order; H or OH if unused. Where a SMILES comes first, the peptide text is derived from it. [ ]: non-standard residue; d: D form. X3 = CC1C(C)C1C(N[*:1])C(=O)[*:2]; NMeL = CN[CH](CC(C)C)C(=O)O; NMeA = CN[CH](C)C(=O)O
The reply must contain the numeric value and, after it, the unit.

A selection of reference data follows.
compound: CC(C)CC1NC(=O)C(C)N(C)C(=O)C(C)N(C)C(=O)C(C2C(C)C2C)NC(=O)C(CC(C)C)N(C)C(=O)C(C)N(C)C(=O)C(CC(C)C)NC1=O (stereo not drawn) [Compound 3] (cyclo([X3][NMeA][NMeA]LL[NMeA][NMeL]); configuration not given here)
IC50: 12500 pM
--
compound: CC(C)CC1NC(=O)C(C)N(C)C(=O)C(C)N(C)C(=O)C(C2C(C)C2C)NC(=O)C(CC(C)CO)N(C)C(=O)C(C)N(C)C(=O)C(C2C(C)C2C)NC1=O (stereo not drawn)
IC50: 790 pM

As a next step, examine the compound that follows.
CC(C)CC1NC(=O)C(C)N(C)C(=O)C(C)N(C)C(=O)C(C2C(C)C2C)NC(=O)C(CC(C)C)N(C)C(=O)C(C)N(C)C(=O)C(C2C(C)C2C)NC1=O (stereo not drawn) [Compound 1] (cyclo([X3][NMeA][NMeA]L[X3][NMeA][NMeL]); configuration not given here) tested on oral epidermoid (KB) carcinoma cell line gave IC50: 50 pM
